Molecular target: E. coli DnaE (DNA polymerase III α-subunit from Escherichia coli) (Escherichia coli, UniProt P10443)
Construct: EcDnaE (E. coli DnaE residues 1-1160); 6xHis (N); made in house; host or cells: E. coli BL21(DE3)
Sequence (P10443 whole entry, the tested form may be a part): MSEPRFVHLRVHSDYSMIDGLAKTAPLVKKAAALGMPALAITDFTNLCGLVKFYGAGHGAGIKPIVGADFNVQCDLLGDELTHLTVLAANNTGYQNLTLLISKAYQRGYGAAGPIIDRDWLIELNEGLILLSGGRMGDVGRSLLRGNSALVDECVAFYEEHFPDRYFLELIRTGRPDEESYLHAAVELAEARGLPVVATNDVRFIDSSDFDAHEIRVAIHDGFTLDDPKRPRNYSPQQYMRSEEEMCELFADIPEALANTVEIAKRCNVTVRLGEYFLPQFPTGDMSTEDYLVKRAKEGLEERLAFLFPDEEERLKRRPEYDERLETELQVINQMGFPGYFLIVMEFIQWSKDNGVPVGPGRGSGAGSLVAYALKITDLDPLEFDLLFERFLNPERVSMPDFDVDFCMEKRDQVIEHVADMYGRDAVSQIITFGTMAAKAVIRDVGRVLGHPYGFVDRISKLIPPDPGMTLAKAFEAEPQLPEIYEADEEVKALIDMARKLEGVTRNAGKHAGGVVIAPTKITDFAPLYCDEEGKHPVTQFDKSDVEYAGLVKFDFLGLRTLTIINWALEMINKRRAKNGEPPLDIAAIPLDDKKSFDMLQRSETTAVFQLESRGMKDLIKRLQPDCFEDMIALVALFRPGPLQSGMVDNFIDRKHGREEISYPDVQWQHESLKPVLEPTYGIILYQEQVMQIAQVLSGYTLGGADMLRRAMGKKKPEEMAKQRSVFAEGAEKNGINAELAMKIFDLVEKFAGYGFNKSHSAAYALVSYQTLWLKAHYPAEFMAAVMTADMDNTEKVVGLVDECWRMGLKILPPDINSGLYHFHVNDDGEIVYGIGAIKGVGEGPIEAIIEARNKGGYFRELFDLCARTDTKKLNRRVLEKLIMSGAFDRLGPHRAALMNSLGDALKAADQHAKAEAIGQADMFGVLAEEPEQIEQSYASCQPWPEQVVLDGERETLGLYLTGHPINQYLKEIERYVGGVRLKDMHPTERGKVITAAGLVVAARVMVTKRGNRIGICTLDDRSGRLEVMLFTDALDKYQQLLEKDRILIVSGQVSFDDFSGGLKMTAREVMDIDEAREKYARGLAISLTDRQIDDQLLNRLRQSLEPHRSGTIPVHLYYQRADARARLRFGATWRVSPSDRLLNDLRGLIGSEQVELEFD
Test: In vitro DnaE single enzyme assay (E. coli)
Format: biochemical
Settings: read-out: E. coli DnaE IC50 (converted)
measured_endpoint: IC50

Need IC50, item CO[C@H]1C[C@H]2C=C[C@H]3[C@H]4O[C@]2(/C(C)=C/[C@@H](C)[C@@H]([C@@H](C)OC(=O)NCc2ccccc2)OC1=O)[C@@H]3[C@H](O)[C@@H](C)[C@H]4OC(=O)c1ccc[nH]1 > 154 µM

Need IC50, item CO[C@H]1CC2C=C[C@H]3[C@H]4O[C@]2(/C(C)=C/[C@@H](C)[C@@H]([C@@H](C)OC(=O)OC2CCC(O)CC2)OC1=O)[C@@H]3[C@H](O)[C@@H](C)[C@H]4OC(=O)c1ccc[nH]1 (single isomer, unassigned) [Example 35] > 76 µM

Need IC50, item CO[C@H]1C[C@H]2C=C[C@H]3[C@H]4O[C@]2(/C(C)=C/[C@@H](C)COC1=O)[C@@H]3[C@H](O)[C@@H](C)[C@H]4OC(=O)c1ccc[nH]1 > 212 µM

Entry source: patent US9944654B2
